Target: mAChR M4 (UniProt P08173)
Construct: hM1 and hM4 cDNAs were purchased from Missouri S&T cDNA Resource
Sequence (P08173 1-479): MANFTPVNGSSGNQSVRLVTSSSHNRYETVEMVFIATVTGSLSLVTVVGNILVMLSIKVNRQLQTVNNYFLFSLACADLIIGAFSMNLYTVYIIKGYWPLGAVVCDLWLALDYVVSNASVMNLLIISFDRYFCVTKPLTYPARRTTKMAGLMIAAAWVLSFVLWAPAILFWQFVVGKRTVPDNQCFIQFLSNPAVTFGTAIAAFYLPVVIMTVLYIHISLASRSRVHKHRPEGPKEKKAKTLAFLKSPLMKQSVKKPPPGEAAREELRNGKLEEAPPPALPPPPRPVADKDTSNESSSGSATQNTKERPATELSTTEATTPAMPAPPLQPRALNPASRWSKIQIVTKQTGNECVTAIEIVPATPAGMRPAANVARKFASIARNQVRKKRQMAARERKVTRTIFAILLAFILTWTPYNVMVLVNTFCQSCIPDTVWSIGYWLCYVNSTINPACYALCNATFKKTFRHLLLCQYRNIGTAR
Assay: mAChR M4 cell-based functional assay (calcium mobilization, Fluo-4, FDSS)
Details: positive allosteric modulator activity: concentration-dependent increase in the EC20 acetylcholine response, CHO-K1 cells; >10 μM estimated for low potency (no plateau)
Just a reminder that ties go to NO: only EC50 strictly below 90 nM counts as YES.

Some entries whose results are on file:
>>> label_class("Cc1cc(C)c2c(n1)sc1c(NC3CCOCC3)n[nH]c12 [Compound 13]")
"NO"
>>> label_class("Cc1cc(C)c2c(n1)sc1c(NCc3ccoc3)nn(C)c12 [Compound 81]")
"YES"
>>> label_class("Cc1csc(CNc2nn(C)c3c2sc2nc(C)cc(C)c23)n1 [Compound 98]")
"NO"

Asked: Lab log: compare recorded EC50 with 90 nM; is it strictly lower for COc1ccc(Cn2nc(N)c3sc4nc(C)c(Cl)c(C)c4c32)cc1 [Compound 161] ?
Given back: NO

Asked: Lab log: compare recorded EC50 with 90 nM; is it strictly lower for Cc1cc(C)c2c(n1)sc1c(NCc3ccc(S(C)(=O)=O)cc3)nn(CCO)c12 [Compound 116] ?
Given back: YES

Asked: Lab log: compare recorded EC50 with 90 nM; is it strictly lower for Cc1nc2sc3c(NCC4CC4)nn(C)c3c2c(C)c1Cl [Compound 19] ?
Given back: NO

Asked: Lab log: compare recorded EC50 with 90 nM; is it strictly lower for CCNc1n[nH]c2c1sc1nc(C)cc(C)c12 [Compound 15] ?
Given back: NO

Asked: Lab log: compare recorded EC50 with 90 nM; is it strictly lower for CC(=O)Nc1n[nH]c2c1sc1nc(C)cc(C)c12 [Compound 126] ?
Given back: NO

Asked: Lab log: compare recorded EC50 with 90 nM; is it strictly lower for Cc1ccnc2sc3c(NCc4ccco4)nn(C)c3c12 [Compound 71] ?
Given back: NO

Asked: Lab log: compare recorded EC50 with 90 nM; is it strictly lower for Cc1cc(C)c2c(n1)sc1c(NC3CCSCC3)n[nH]c12 [Compound 12] ?
Given back: NO

Asked: Lab log: compare recorded EC50 with 90 nM; is it strictly lower for Cc1cc(C)c2c(n1)sc1c(NCc3cccs3)nn(CCO)c12 [Compound 101] ?
Given back: YES

Asked: Lab log: compare recorded EC50 with 90 nM; is it strictly lower for Cc1cc(C)c2c(n1)sc1c(NC3CCCCC3)nn(C)c12 [Compound 66] ?
Given back: NO

Asked: Lab log: compare recorded EC50 with 90 nM; is it strictly lower for Cc1cc(C)c2c(n1)sc1c(NC3CCCCC3)n[nH]c12 [Compound 132] ?
Given back: NO

Asked: Lab log: compare recorded EC50 with 90 nM; is it strictly lower for Cc1cc(C)c2c(n1)sc1c(NCc3nccn3C)nn(C)c12 [Compound 163] ?
Given back: NO

Asked: Lab log: compare recorded EC50 with 90 nM; is it strictly lower for Cc1ccnc2sc3c(NCc4ccccc4)nn(C)c3c12 [Compound 68] ?
Given back: NO

Asked: Lab log: compare recorded EC50 with 90 nM; is it strictly lower for Cc1ccc2c(n1)sc1c(NCCC(C)C)n[nH]c12 [Compound 156] ?
Given back: NO

Asked: Lab log: compare recorded EC50 with 90 nM; is it strictly lower for Cc1cc(C)c2c(n1)sc1c(NCc3ccc(F)c(F)c3)nn(C)c12 [Compound 60] ?
Given back: NO

Asked: Lab log: compare recorded EC50 with 90 nM; is it strictly lower for COCCn1nc(N)c2sc3nc(C)cc(C)c3c21 [Compound 165] ?
Given back: NO

Asked: Lab log: compare recorded EC50 with 90 nM; is it strictly lower for Cc1nc2sc3c(NCc4ccccc4)n[nH]c3c2c(C)c1Cl [Compound 16] ?
Given back: NO

* * *

# pEC50 per entry
Biological target: mAChR M4 (UniProt P08173)
Construct: hM1 and hM4 cDNAs were purchased from Missouri S&T cDNA Resource
Assay: mAChR M4 cell-based functional assay (calcium mobilization, Fluo-4, FDSS)
Details: positive allosteric modulator activity, EC20 acetylcholine response, CHO-K1 cells
Just the number, please.

Completed entries (count: 3):
>>> test_result("Cc1cc(C)c2c(n1)sc1c(NCCC(C)C)n[nH]c12")
5.91
>>> test_result("Cc1cc(C)c2c(n1)sc1c(NCC3CCCN3)nn(C)c12 (stereo not drawn)")
5.96
>>> test_result("Cc1cc(C)c2c(n1)sc1c(NCc3ccc4[nH]ccc4c3)nn(C)c12")
5.89

Please examine the following record next.
Asked: Item under review: `Cc1cc(C)c2c(n1)sc1c(NC(C)C)nn(C)c12` . Reported pEC50?
Given back: 6.11

* * *

# Emax (%)* per entry
Biological target: mAChR M4 (UniProt P08173)
Construct: hM1 and hM4 cDNAs were purchased from Missouri S&T cDNA Resource
Sequence (P08173 1-479): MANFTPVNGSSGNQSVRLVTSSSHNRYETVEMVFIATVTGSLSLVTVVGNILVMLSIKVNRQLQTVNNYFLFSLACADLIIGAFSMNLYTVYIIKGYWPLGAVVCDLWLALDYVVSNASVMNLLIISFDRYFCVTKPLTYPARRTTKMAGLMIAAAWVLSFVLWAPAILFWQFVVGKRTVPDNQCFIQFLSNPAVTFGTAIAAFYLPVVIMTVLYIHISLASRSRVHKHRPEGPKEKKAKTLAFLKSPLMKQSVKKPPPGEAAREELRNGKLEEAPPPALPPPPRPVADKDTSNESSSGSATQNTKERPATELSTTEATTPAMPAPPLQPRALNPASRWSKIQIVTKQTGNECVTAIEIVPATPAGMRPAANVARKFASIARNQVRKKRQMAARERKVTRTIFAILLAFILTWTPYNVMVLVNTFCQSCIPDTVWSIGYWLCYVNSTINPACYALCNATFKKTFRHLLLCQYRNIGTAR
Assay: mAChR M4 cell-based functional assay (calcium mobilization, Fluo-4, FDSS)
Conditions: % ACh maximum at 30 μM
Give the number; % is assumed, so skip it.

Completed entries (count: 6):
>>> test_result("Cc1cc(C)c2c(n1)sc1c(NCc3ccco3)nn(C)c12")
85
>>> test_result("Cc1cc(C)c2c(n1)sc1c(NCc3scnc3C)nn(C)c12")
53
>>> test_result("Cc1cc(C)c2c(n1)sc1c(NC3CCN(C)CC3)nn(C)c12")
52
>>> test_result("Cc1nc2sc3c(NCCC(C)C)nn(C)c3c2c(C)c1Cl")
61
>>> test_result("Cc1cc(C)c2c(n1)sc1c(NC3CCSCC3)nn(CCO)c12")
70
>>> test_result("CC(=O)N1CCC(CNc2nn(C)c3c2sc2nc(C)cc(C)c23)CC1")
41

Asked: Item under review: `Cc1cc(C)c2c(n1)sc1c(NC3CCOCC3)nn(CCO)c12` . Reported Emax (%)*?
Given back: 69

Asked: Item under review: `COC(=O)Cn1nc(NCc2ccc(S(C)(=O)=O)cc2)c2sc3nc(C)cc(C)c3c21` . Reported Emax (%)*?
Given back: 40

Asked: Item under review: `Cc1ccc2c(n1)sc1c(NCc3ccccc3)nn(C)c12` . Reported Emax (%)*?
Given back: 70

* * *

Molecular target: mAChR M4 (UniProt P08173)
Construct: hM1 and hM4 cDNAs were purchased from Missouri S&T cDNA Resource
Sequence (P08173 1-479): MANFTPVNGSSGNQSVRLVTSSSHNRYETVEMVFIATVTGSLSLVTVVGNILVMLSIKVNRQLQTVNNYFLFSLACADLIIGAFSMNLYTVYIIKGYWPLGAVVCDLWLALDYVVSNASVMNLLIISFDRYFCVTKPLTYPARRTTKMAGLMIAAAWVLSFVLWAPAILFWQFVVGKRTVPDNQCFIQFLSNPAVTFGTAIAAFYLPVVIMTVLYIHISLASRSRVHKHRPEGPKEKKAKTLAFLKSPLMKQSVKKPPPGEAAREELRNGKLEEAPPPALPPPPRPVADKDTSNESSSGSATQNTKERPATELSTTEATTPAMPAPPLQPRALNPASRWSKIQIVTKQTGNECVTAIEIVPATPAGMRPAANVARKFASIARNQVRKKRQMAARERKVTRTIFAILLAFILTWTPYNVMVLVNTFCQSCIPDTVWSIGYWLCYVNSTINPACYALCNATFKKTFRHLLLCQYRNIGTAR
Experiment: mAChR M4 cell-based functional assay (calcium mobilization, Fluo-4, FDSS)
Conditions: positive allosteric modulator activity: concentration-dependent increase in the EC20 acetylcholine response, CHO-K1 cells; >10 μM estimated for low potency (no plateau)
Experimental: Chinese hamster ovary (CHO-K1) cells stably expressing rat (r)M1 were purchased from the American Type Culture Collection and cultured according to their indicated protocol. […] Calcium flux was measured using the Functional Drug Screening System (FDSS) 6000 (Hamamatsu Corporation, Tokyo, Japan) as an increase in the fluorescent static ratio. […] Agonist activity was analyzed as a concentration-dependent increase in calcium mobilization upon compound addition. […]
Just a reminder that ties go to label 0: only EC50 strictly below 800 nM counts as label 1.

Some entries whose results are on file:
>>> label_class("Cc1cc(C)c2c(n1)sc1c(NC3CCCCCC3)n[nH]c12")
"label 0"
>>> label_class("Cc1nc2sc3c(NCc4ccccc4)nn(C)c3c2c(C)c1Cl")
"label 0"
>>> label_class("COc1ccc(CNc2nn(C)c3c2sc2nccc(C)c23)cc1")
"label 0"
>>> label_class("Cc1cc(C)c2c(n1)sc1c(NC3CCCC3)nn(CCO)c12")
"label 1"
>>> label_class("COc1ccc(CNc2nn(C)c3c2sc2nc(C)c(Cl)c(C)c23)cc1")
"label 0"
>>> label_class("Cc1cc(C)c2c(n1)sc1c(NCc3ccc(S(C)(=O)=O)c(F)c3)nn(C)c12")
"label 1"

Asked: Lab log: compare recorded EC50 with 800 nM; is it strictly lower for `Cc1cc(C)c2c(n1)sc1c(NCc3cccs3)nn(C)c12` ?
Given back: label 1

Asked: Lab log: compare recorded EC50 with 800 nM; is it strictly lower for `Cc1cc(C)c2c(n1)sc1c(NCC3CC3)n[nH]c12` ?
Given back: label 0

Asked: Lab log: compare recorded EC50 with 800 nM; is it strictly lower for `Cc1nc2sc3c(NCc4ccccc4F)n[nH]c3c2c(C)c1Cl` ?
Given back: label 0

Asked: Lab log: compare recorded EC50 with 800 nM; is it strictly lower for `Cc1cc(C)c2c(n1)sc1c(NCC(C)C)n[nH]c12` ?
Given back: label 0

Asked: Lab log: compare recorded EC50 with 800 nM; is it strictly lower for `Cc1nc2sc3c(NCCC(C)C)nn(C)c3c2c(C)c1Cl` ?
Given back: label 0

Asked: Lab log: compare recorded EC50 with 800 nM; is it strictly lower for `Cc1cc(C)c2c(n1)sc1c(NCc3cc(C)on3)nn(C)c12` ?
Given back: label 0

Asked: Lab log: compare recorded EC50 with 800 nM; is it strictly lower for Cc1cc(C)c2c(n1)sc1c(NC3CCCNC3)n[nH]c12 (stereo not shown) ?
Given back: label 0

Asked: Lab log: compare recorded EC50 with 800 nM; is it strictly lower for `Cc1cc(C)c2c(n1)sc1c(NCc3csc(C)n3)nn(C)c12` ?
Given back: label 1

Asked: Lab log: compare recorded EC50 with 800 nM; is it strictly lower for `Cc1ccnc2sc3c(NCc4ccncc4)nn(C)c3c12` ?
Given back: label 1

Asked: Lab log: compare recorded EC50 with 800 nM; is it strictly lower for `Cc1ccc2c(n1)sc1c(NCc3ccccc3)nn(C)c12` ?
Given back: label 0

Asked: Lab log: compare recorded EC50 with 800 nM; is it strictly lower for `Cc1cc(C)c2c(n1)sc1c(NC(=O)C3CC3)nn(C)c12` ?
Given back: label 0

Asked: Lab log: compare recorded EC50 with 800 nM; is it strictly lower for `Cc1nc2sc3c(NCc4ccc(F)c(F)c4)nn(C)c3c2c(C)c1Cl` ?
Given back: label 0

Asked: Lab log: compare recorded EC50 with 800 nM; is it strictly lower for `COc1ccc(CNc2nn(C)c3c2sc2nc(C)cc(C)c23)c(OC)c1` ?
Given back: label 1
